These measurements were taken from PubChem BioAssay (NCI).

# System: SNB-19 CNS
# test: NCI tumour cell line growth inhibition, 48 h
outcome.measure: TGI

# example entries with known answers
                                   compound  reported_result
0  CN1C=C(C(N)=O)C2CC(O)[C@@](NC(=O)CS(N)(=O)=O)(C(=O)O)C2C1 (stereo partly drawn)          19.3 µM
1  O=C(/C(=N/Nc1cn[nH]c(=O)c1Cl)c1ccccc1)c1ccccc1         > 100 µM

Look at this compound and give its reported TGI. C=C1c2ccccc2N(S(=O)(=O)c2ccc(C)cc2)C12CCCCC2
> 100 µM

----------
# Test system: DMS 114 small cell lung
# test: NCI tumour cell line growth inhibition, 48 h
Listing: TGI of selected molecules

molecule	TGI
CCc1nc2c([nH]1)C(=O)c1ccccc1C2=O	70.6 µM

What measured TGI goes with O=C1[C@H]2ON(c3ccccc3)C(c3cccc([N+](=O)[O-])c3)[C@H]2C(=O)N1c1ccc(Cc2ccc(N3C(=O)[C@@H]4ON(c5ccccc5)C(c5cccc([N+](=O)[O-])c5)[C@@H]4C3=O)cc2)cc1 (stereo partly specified) ?
> 100 µM

Please look up its TGI: C=CCN(N=O)C(=O)ON1C(=O)CCC1=O
> 100 µM
